experimental-protocol: TOX21_p53_BLA_p4_viability: Viability Assessment in the Tox21 HCT-116 p53 Agonism Beta-lactamase Assay, Phase 4 (AID 2283597);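 further: hits lower the luminescence signal meaning cytotoxicity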
Inconclusive results are not listed. Active and inactive are the calls of the source. How the source made its calls: active means hit-call score of the fitted dose curve at least 0.9, where 1 is the maximum; inconclusive means response in the unintended direction; inactive means score below 0.9.
Labels: 1.0 (active), 0.0 (inactive)

{"compound": "CC(C)(O)C#N", "group-label": 0.0}
{"compound": "O=[N+]([O-])c1ccc(CBr)cc1", "group-label": 0.0}
{"compound": "C=CC=O", "group-label": 0.0}
{"compound": "CCN(C)N=O", "group-label": 0.0}
{"compound": "CC(C)c1ccc(NC(=O)N(C)C)cc1", "group-label": 0.0}
{"compound": "CN(C)S(=O)(=O)N(SC(F)(Cl)Cl)c1ccccc1", "group-label": 1.0}
{"compound": "CC(C)(CCl)C(=O)Cl", "group-label": 0.0}
{"compound": "CCCCCCCCCCCCCCCCCC(=O)O", "group-label": 0.0}
{"compound": "CC(C)CC(C)N (centres undefined)", "group-label": 0.0}

====

tested-system: Aryl hydrocarbon receptor (Homo sapiens) (UniProt P35869)
Sequence (P35869 whole entry, looked up): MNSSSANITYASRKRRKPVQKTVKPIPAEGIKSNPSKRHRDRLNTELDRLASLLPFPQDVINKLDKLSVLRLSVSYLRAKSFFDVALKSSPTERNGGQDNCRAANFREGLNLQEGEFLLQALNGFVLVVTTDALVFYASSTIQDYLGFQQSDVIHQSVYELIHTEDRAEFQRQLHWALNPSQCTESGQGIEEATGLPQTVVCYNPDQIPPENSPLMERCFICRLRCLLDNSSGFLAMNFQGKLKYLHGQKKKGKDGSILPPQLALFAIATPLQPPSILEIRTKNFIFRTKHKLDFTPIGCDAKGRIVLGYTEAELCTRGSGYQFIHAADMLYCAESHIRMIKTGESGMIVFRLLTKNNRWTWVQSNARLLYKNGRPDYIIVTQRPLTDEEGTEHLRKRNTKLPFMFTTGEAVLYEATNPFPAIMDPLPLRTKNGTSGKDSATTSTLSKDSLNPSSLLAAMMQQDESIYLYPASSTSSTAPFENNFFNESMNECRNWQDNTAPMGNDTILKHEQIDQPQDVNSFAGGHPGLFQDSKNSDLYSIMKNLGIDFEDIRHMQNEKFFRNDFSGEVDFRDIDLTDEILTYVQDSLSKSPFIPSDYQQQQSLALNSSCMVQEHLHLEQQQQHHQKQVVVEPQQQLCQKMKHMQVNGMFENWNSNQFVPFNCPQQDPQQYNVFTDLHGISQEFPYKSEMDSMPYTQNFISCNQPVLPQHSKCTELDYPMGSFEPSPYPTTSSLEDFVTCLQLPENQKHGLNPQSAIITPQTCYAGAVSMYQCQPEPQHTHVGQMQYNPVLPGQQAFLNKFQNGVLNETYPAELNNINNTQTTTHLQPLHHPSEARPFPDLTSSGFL
experimental-protocol: ATG_Ahr_CIS: Attagene CIS-FACTORIAL HepG2 Assay for human Aryl Hydrocarbon Receptor (Ahr) (AID 2282930)
condition-set: HepG2 AhR cis-factorial reporter transcription; actives raise or lower the signal
Activity calls are given as the source filed them. How the source made its calls: active means hit-call score of the fitted dose curve at least 0.9, where 1 is the maximum; inactive means score below 0.9.
Outcome codes: active, inactive

{"compound": "C=CC(=O)OCC(CC)CCCC (stereo not drawn)", "group-label": "inactive"}
{"compound": "C[C@]12CC[C@H](O)C[C@H]1CC[C@@H]1[C@@H]2C[C@@H](O)[C@]2(C)[C@@H](C3=CC(=O)OC3)CC[C@]12O", "group-label": "inactive"}
{"compound": "CC1CCCC1.[C-]#[O+].[C-]#[O+].[C-]#[O+].[Mn]", "group-label": "active"}
{"compound": "CCc1cc(C)cc(CC)c1-c1c(OC(=O)C(C)(C)C)n2n(c1=O)CCOCC2", "group-label": "inactive"}
{"compound": "CN(C)C(=O)C(c1ccccc1)c1ccccc1", "group-label": "inactive"}
{"compound": "Cc1ccc(OP(=O)(Oc2ccc(C)cc2)Oc2ccc(C)cc2)cc1 (tested in a mixture with another compound)", "group-label": "inactive"}
{"compound": "CN1C(=O)CCS(=O)(=O)C1c1ccc(Cl)cc1 (stereo not drawn)", "group-label": "inactive"}
{"compound": "O=[N+]([O-])O", "group-label": "inactive"}
{"compound": "[Cl-].[Cl-].[Cl-].[Yb+3]", "group-label": "inactive"}
{"compound": "N#CCNCC#N", "group-label": "inactive"}
{"compound": "Cc1ccccc1CCl", "group-label": "inactive"}
{"compound": "C[N+](C)(C)CC(=O)[O-]", "group-label": "inactive"}
{"compound": "Nc1ccccc1C(=O)OCCc1ccccc1", "group-label": "active"}
{"compound": "C[N+](C)(C)CC(=O)O", "group-label": "inactive"}
{"compound": "CCc1cccc(C)c1N(C(=O)CCl)[C@@H](C)COC", "group-label": "inactive"}
{"compound": "CCOC(=O)NC(=S)Nc1ccccc1NC(=S)NC(=O)OCC", "group-label": "inactive"}
{"compound": "O=C=Nc1ccccc1", "group-label": "active"}
{"compound": "O=CNC(N1CCN(C(NC=O)C(Cl)(Cl)Cl)CC1)C(Cl)(Cl)Cl (stereo not drawn)", "group-label": "inactive"}
{"compound": "CC(=O)/C=C/c1ccccc1", "group-label": "inactive"}
{"compound": "Nc1ccc([N+](=O)[O-])cc1N", "group-label": "active"}
{"compound": "C=CCO", "group-label": "inactive"}
{"compound": "O=[N+]([O-])c1ccc(Cl)cc1", "group-label": "inactive"}
{"compound": "Nc1ccc(Cl)c(Cl)c1", "group-label": "inactive"}
{"compound": "CCOP(O)OCC", "group-label": "inactive"}
{"compound": "CCC(C)c1cc(C(C)(C)C)cc(-n2nc3ccccc3n2)c1O (stereo not drawn)", "group-label": "inactive"}
{"compound": "Cc1cc(C)c(C2=C(OC(=O)CC(C)(C)C)C3(CCCC3)OC2=O)c(C)c1", "group-label": "inactive"}
{"compound": "S=c1[nH]c2ccccc2[nH]1", "group-label": "inactive"}
{"compound": "O=C(O)c1cc[c]([Hg][Cl])cc1", "group-label": "inactive"}
